- Tested on: LG0703-F948-PDC complex spheroid viability
- assay.comment: Anticancer human tumor LG0703-F948-PDC patient-derived lung adenocarcinoma cell line growth inhibition [RAS]
- conditions: second compound 0.0316 µM; first compound 0.003 µM; stronger effect = lower value
- Excerpt: RAS pathway inhibitors in Combinations in Complex Spheroids A high-throughput screen of multi-cell type tumor spheroids was designed to identify active combinations of RAS pathway inhibitors and targeted small molecules. Complex spheroids include a stromal component modeled by human endothelial cells (HUVEC) and fibroblasts modeled by human mesenchymal stem cells (MSCs). […] Compounds. […] If the clinical Cmax for an agent had not been determined, the highest concentration tested was 10 microM. […]
measured.parameter: viability, T/C (%)
# value in %; strip the unit string

Which value of viability, T/C has been reported for CCc1c2c(nc3ccc(O)cc13)-c1cc3c(c(=O)n1C2)COC(=O)[C@]3(O)CC + C#Cc1c(F)ccc2cc(O)cc(-c3ncc4c(N5CC6CCC(C5)N6)nc(OCC56CCCN5CC(F)C6)nc4c3F)c12 in the records?
90.5

Follow-up item: CC1(C)CCC(Nc2ncc(C(F)(F)F)c(-c3c[nH]c4c(P(C)(C)=O)c(C#N)ccc34)n2)CN1 (centres undefined) + C#Cc1c(F)ccc2cc(O)cc(-c3ncc4c(N5CC6CCC(C5)N6)nc(OCC56CCCN5CC(F)C6)nc4c3F)c12
65.2

Follow-up item: CC1(C)CCC(Nc2ncc(C(F)(F)F)c(-c3c[nH]c4c(P(C)(C)=O)c(C#N)ccc34)n2)CN1 (centres undefined) + C=CC(=O)N1CCN(c2nc(OCC3CCCN3C)nc3c(F)c(-c4nc(N)cc(C)c4C(F)(F)F)c(Cl)cc23)C(C)C1
71.4

Follow-up item: CCc1c2c(nc3ccc(O)cc13)-c1cc3c(c(=O)n1C2)COC(=O)[C@]3(O)CC + C=CC(=O)N1CCN(c2nc(OCC3CCCN3C)nc3c(F)c(-c4nc(N)cc(C)c4C(F)(F)F)c(Cl)cc23)C(C)C1
106

====

- Tested on: LG0703-F948-PDC complex spheroid viability
- assay.comment: Anticancer human tumor LG0703-F948-PDC cell line growth inhibition [RAS];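 note: spheroids exposed to agents for 7 days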;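 for viability, T/C: 100% = DMSO vehicle wells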
- conditions: second compound 0.03 µM; first compound 0.316 µM; stronger effect = lower value
Please respond with reported viability, T/C for every item in the list.
# value in %; strip the unit string

Item: C[C@@H](NC(=O)c1ncnc(N)c1Cl)c1ncc(C(=O)Nc2cc(C(F)(F)F)c(Cl)cn2)s1 + CCn1c(-c2cc(N3CCN(C)CC3)cnc2C(C)OC)c2c3cc(ccc31)-c1csc(n1)CC(NC(=O)C1CC1C)C(=O)N1CCCC(N1)C(=O)OCC(C)(C)C2 Test system: LG0703-F948-PDC complex spheroid viability Read-out: viability, T/C Value: ?
16.1

Follow-up item: CCN1CCN(Cc2ccc(Nc3ncc(F)c(-c4cc(F)c5nc(C)n(C(C)C)c5c4)n3)nc2)CC1 + CCn1c(-c2cc(N3CCN(C)CC3)cnc2C(C)OC)c2c3cc(ccc31)-c1csc(n1)CC(NC(=O)C1CC1C)C(=O)N1CCCC(N1)C(=O)OCC(C)(C)C2
18.6

Follow-up item: CC(=O)OC12COC1CC(O)C1(C)C(=O)C(O)C3=C(C)C(OC(=O)C(O)C(NC(=O)OC(C)(C)C)c4ccccc4)CC(O)(C(OC(=O)c4ccccc4)C21)C3(C)C (stereo not drawn) + CCn1c(-c2cc(N3CCN(C)CC3)cnc2C(C)OC)c2c3cc(ccc31)-c1csc(n1)CC(NC(=O)C1CC1C)C(=O)N1CCCC(N1)C(=O)OCC(C)(C)C2
9.54

Follow-up item: Nc1ccn(C2OC(CO)C(O)C2(F)F)c(=O)n1 (stereo not drawn) + CCn1c(-c2cc(N3CCN(C)CC3)cnc2C(C)OC)c2c3cc(ccc31)-c1csc(n1)CC(NC(=O)C1CC1C)C(=O)N1CCCC(N1)C(=O)OCC(C)(C)C2
14.9

Follow-up item: C=CC(=O)Nc1cc(Nc2nccc(-c3cn(C)c4ccccc34)n2)c(OC)cc1N(C)CCN(C)C + CCn1c(-c2cc(N3CCN(C)CC3)cnc2C(C)OC)c2c3cc(ccc31)-c1csc(n1)CC(NC(=O)C1CC1C)C(=O)N1CCCC(N1)C(=O)OCC(C)(C)C2
6.1

Follow-up item: CCC(CC)c1cc(NC2CCC(N)C2)n2nccc2n1 (stereo not drawn) + CCn1c(-c2cccnc2C(C)OC)c2c3cc(ccc31)N1CCOC(CC(NC(=O)C(C(C)C)N(C)C(=O)C3(F)CCN(C(=O)C#CC(C)(C)N(C)C)CC3)C(=O)N3CCCC(N3)C(=O)OCC(C)(C)C2)C1
77.5

Follow-up item: CC(Nc1ccc2c(c1)OCCn1cc(N3C(=O)OCC3C(F)F)nc1-2)C(N)=O (stereo not drawn) + CCn1c(-c2cc(N3CCN(C)CC3)cnc2C(C)OC)c2c3cc(ccc31)-c1csc(n1)CC(NC(=O)C1CC1C)C(=O)N1CCCC(N1)C(=O)OCC(C)(C)C2
4

Follow-up item: CC(Nc1ccc2c(c1)OCCn1cc(N3C(=O)OCC3C(F)F)nc1-2)C(N)=O (stereo not drawn) + CCn1c(-c2cccnc2C(C)OC)c2c3cc(ccc31)N1CCOC(CC(NC(=O)C(C(C)C)N(C)C(=O)C3(F)CCN(C(=O)C#CC(C)(C)N(C)C)CC3)C(=O)N3CCCC(N3)C(=O)OCC(C)(C)C2)C1
60.8

====

- Tested on: LG0703-F948-PDC complex spheroid viability
- assay.comment: Anticancer human tumor LG0703-F948-PDC cell line growth inhibition [RAS];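 note: spheroids exposed to agents for 7 days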;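 for viability, T/C: 100% = DMSO vehicle wells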
- conditions: second compound 0.000949 µM; first compound 0.0316 µM; stronger effect = lower value
Please respond with reported viability, T/C for every item in the list.
# value in %; strip the unit string

Which value of viability, T/C has been reported for O=C(c1ccc(F)c(F)c1Nc1ccc(I)cc1F)N1CC(O)([C@@H]2CCCCN2)C1 + CCn1c(-c2cccnc2C(C)OC)c2c3cc(ccc31)N1CCOC(CC(NC(=O)C(C(C)C)N(C)C(=O)C3(F)CCN(C(=O)C#CC(C)(C)N(C)C)CC3)C(=O)N3CCCC(N3)C(=O)OCC(C)(C)C2)C1 in the records?
64.2

Follow-up item: CC1(O)CCCC1n1c(=O)c(C(F)F)cc2cnc(NC3CCN(S(C)(=O)=O)CC3)nc21 (centres undefined) + CCn1c(-c2cccnc2C(C)OC)c2c3cc(ccc31)N1CCOC(CC(NC(=O)C(C(C)C)N(C)C(=O)C3(F)CCN(C(=O)C#CC(C)(C)N(C)C)CC3)C(=O)N3CCCC(N3)C(=O)OCC(C)(C)C2)C1
112

Follow-up item: NC1c2ccccc2OC12CCN(c1cnc3c(N4CCCc5ncccc54)n[nH]c3n1)CC2 (centres undefined) + CCn1c(-c2cccnc2C(C)OC)c2c3cc(ccc31)N1CCOC(CC(NC(=O)C(C(C)C)N(C)C(=O)C3(F)CCN(C(=O)C#CC(C)(C)N(C)C)CC3)C(=O)N3CCCC(N3)C(=O)OCC(C)(C)C2)C1
55.4

Follow-up item: C=CC(=O)N1CCN(c2nc(OCC3CCCN3C)nc3c(F)c(-c4nc(N)cc(C)c4C(F)(F)F)c(Cl)cc23)C(C)C1 (centres undefined) + CCn1c(-c2cc(N3CCN(C)CC3)cnc2C(C)OC)c2c3cc(ccc31)-c1csc(n1)CC(NC(=O)C1CC1C)C(=O)N1CCCC(N1)C(=O)OCC(C)(C)C2
71

====

- Tested on: LG0703-F948-PDC complex spheroid viability
- assay.comment: Anticancer human tumor LG0703-F948-PDC cell line growth inhibition [RAS];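 note: spheroids exposed to agents for 7 days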
- conditions: curve of first compound; second compound 0.00949 µM
Please respond with reported IC50 for every item in the list.

Which value of IC50 has been reported for CCN1CCN(Cc2ccc(Nc3ncc(F)c(-c4cc(F)c5nc(C)n(C(C)C)c5c4)n3)nc2)CC1 + CCn1c(-c2cc(N3CCN(C)CC3)cnc2C(C)OC)c2c3cc(ccc31)-c1csc(n1)CC(NC(=O)C1CC1C)C(=O)N1CCCC(N1)C(=O)OCC(C)(C)C2 in the records?
< 3.16 nM

Follow-up item: CCN1CCN(Cc2ccc(Nc3ncc(F)c(-c4cc(F)c5nc(C)n(C(C)C)c5c4)n3)nc2)CC1 + CCn1c(-c2cccnc2C(C)OC)c2c3cc(ccc31)N1CCOC(CC(NC(=O)C(C(C)C)N(C)C(=O)C3(F)CCN(C(=O)C#CC(C)(C)N(C)C)CC3)C(=O)N3CCCC(N3)C(=O)OCC(C)(C)C2)C1
> 1000 nM

====

- Tested on: LG0703-F948-PDC complex spheroid viability
- assay.comment: Anticancer human tumor LG0703-F948-PDC cell line growth inhibition [RAS];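 note: spheroids exposed to agents for 7 days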;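 for viability, T/C: 100% = DMSO vehicle wells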
- conditions: second compound 0.1 µM; first compound 0.1 µM; stronger effect = lower value
In plain terms, low viability, T/C, meaning strictly below 80%, gives satisfied, and everything else gives not satisfied.

Is viability, T/C of C[C@@H](NC(=O)c1ncnc(N)c1Cl)c1ncc(C(=O)Nc2cc(C(F)(F)F)c(Cl)cn2)s1 + C=CC(=O)N1CCN(c2nc(OCC3CCCN3C)nc3c(F)c(-c4nc(N)cc(C)c4C(F)(F)F)c(Cl)cc23)C(C)C1 strictly below 80%?
not satisfied

Follow-up item: CC1(O)CCCC1n1c(=O)c(C(F)F)cc2cnc(NC3CCN(S(C)(=O)=O)CC3)nc21 (centres undefined) + C#Cc1c(F)ccc2cc(O)cc(-c3ncc4c(N5CC6CCC(C5)N6)nc(OCC56CCCN5CC(F)C6)nc4c3F)c12
not satisfied

Follow-up item: C=CC(=O)N1CCN(c2nc(OCC3CCCN3C)nc3c(F)c(-c4nc(N)cc(C)c4C(F)(F)F)c(Cl)cc23)C(C)C1 (centres undefined) + C#Cc1c(F)ccc2cc(O)cc(-c3ncc4c(N5CC6CCC(C5)N6)nc(OCC56CCCN5CC(F)C6)nc4c3F)c12
not satisfied

Follow-up item: CC(=O)OC12COC1CC(O)C1(C)C(=O)C(O)C3=C(C)C(OC(=O)C(O)C(NC(=O)OC(C)(C)C)c4ccccc4)CC(O)(C(OC(=O)c4ccccc4)C21)C3(C)C (centres undefined) + C=CC(=O)N1CCN(c2nc(OCC3CCCN3C)nc3c(F)c(-c4nc(N)cc(C)c4C(F)(F)F)c(Cl)cc23)C(C)C1
satisfied

Follow-up item: Nc1ccn(C2OC(CO)C(O)C2(F)F)c(=O)n1 (centres undefined) + C=CC(=O)N1CCN(c2nc(OCC3CCCN3C)nc3c(F)c(-c4nc(N)cc(C)c4C(F)(F)F)c(Cl)cc23)C(C)C1
satisfied

Follow-up item: CC(C)n1nc(-c2ccc3oc(N)nc3c2)c2c(N)ncnc21 + C#Cc1c(F)ccc2cc(O)cc(-c3ncc4c(N5CC6CCC(C5)N6)nc(OCC56CCCN5CC(F)C6)nc4c3F)c12
satisfied

Follow-up item: CC(Nc1ccc2c(c1)OCCn1cc(N3C(=O)OCC3C(F)F)nc1-2)C(N)=O (centres undefined) + C=CC(=O)N1CCN(c2nc(OCC3CCCN3C)nc3c(F)c(-c4nc(N)cc(C)c4C(F)(F)F)c(Cl)cc23)C(C)C1
not satisfied

Follow-up item: C=CC(=O)Nc1cc(Nc2nccc(-c3cn(C)c4ccccc34)n2)c(OC)cc1N(C)CCN(C)C + C=CC(=O)N1CCN(c2nc(OCC3CCCN3C)nc3c(F)c(-c4nc(N)cc(C)c4C(F)(F)F)c(Cl)cc23)C(C)C1
satisfied
